These data points were gathered from the supplement of paper PMC10307832.

For each record, write down the corresponding relative viability.
Tested on: HCC-15
EXPERIMENT DESCRIPTION: relative viability (nuclei count vs DMSO), 5 days (fraction); higher = more cells survive
CONDITION CONTEXT: first compound 8 µM
Give bare numbers.

# count of solved cases: 5
C=C1C(=O)O[C@@H](CCCCCCCC)[C@@H]1C(=O)O [C-75] + NC(=O)Nc1cc(-c2cccc(F)c2)sc1C(=O)N[C@H]1CCCNC1 [AZD7762] (partner 0.2 µM) ... 1.22
C=C1C(=O)O[C@@H](CCCCCCCC)[C@@H]1C(=O)O [C-75] + COc1cc2c(Oc3ccc(NC(=O)C4(C(=O)Nc5ccc(F)cc5)CC4)cc3F)ccnc2cc1OCCCN1CCOCC1 [Foretinib] (partner 0.25 µM) ... 0.931
C=C1C(=O)O[C@@H](CCCCCCCC)[C@@H]1C(=O)O [C-75] + CC(=O)Nc1cccc(-n2c(=O)n(C3CC3)c(=O)c3c(Nc4ccc(I)cc4F)n(C)c(=O)c(C)c32)c1 [Trametinib] (partner 0.02 µM) ... 0.426
C=C1C(=O)O[C@@H](CCCCCCCC)[C@@H]1C(=O)O [C-75] + Nc1ncn([C@H]2C[C@H](O)[C@@H](CO)O2)c(=O)n1 [Decitabine] (partner 2 µM) ... 0.626
C=C1C(=O)O[C@@H](CCCCCCCC)[C@@H]1C(=O)O [C-75] + CC1(C)CCC(c2ccc(Cl)cc2)=C(CN2CCN(c3ccc(C(=O)NS(=O)(=O)c4ccc(N[C@H](CCN5CCOCC5)CSc5ccccc5)c(S(=O)(=O)C(F)(F)F)c4)cc3)CC2)C1 [Navitoclax] (partner 0.5 µM) ... 0.733

I need relative viability for every entry listed below, if you could help.
1. C=C1C(=O)O[C@@H](CCCCCCCC)[C@@H]1C(=O)O [C-75] + CC(C)C[C@H](NC(=O)[C@H](Cc1ccccc1)NC(=O)c1cnccn1)B(O)O [Bortezomib] (partner 0.002 µM)
2. C=C1C(=O)O[C@@H](CCCCCCCC)[C@@H]1C(=O)O [C-75] + Nc1nc2[nH]cc(CCc3ccc(C(=O)N[C@@H](CCC(=O)O)C(=O)O)cc3)c2c(=O)[nH]1 [Pemetrexed] (partner 0.2 µM)

*A*
1.01
0.223
